- Test system: Escherichia coli TOP10;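 note: peptides expressed intracellularly from a pBAD plasmid library in pooled LB shake-flask culture, induced with 0.3% L-arabinose, DNA abundance read by NGS, three biological replicates, DESeq2 with apeglm shrinkage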
- TEST_PROTOCOL: shrunken log2 fold change of peptide-encoding DNA abundance (4.5 h post-induction vs induction); higher = less antimicrobial activity (less host growth inhibition)
- TEST_PARAMETERS: time post-induction: 4.5 h; library: site-saturation at positions 5, 18, 19, 20
Assign t whenever shrunken log2 fold change does not fall below -0.02; assign f whenever it does.

Consider the worked cases shown below.
In [3]: df
Out[3]:
          sequence_content            assay_system  assigned_category
0  RRIRCRPPRLPRPRPRPFFSPRP  Escherichia coli TOP10                  f
1  RRIRCRPPRLPRPRPRPYVPPRP  Escherichia coli TOP10                  f
2  RRIRIRPPRLPRPRPRPTQKPRP  Escherichia coli TOP10                  t
3  RRIRRRPPRLPRPRPRPLRLPRP  Escherichia coli TOP10                  t
4  RRIRSRPPRLPRPRPRPSQIPRP  Escherichia coli TOP10                  f

**Query** For this sequence, is measured shrunken log2 fold change -0.02 or higher? `RRIRKRPPRLPRPRPRPHQCPRP`
**Result** f

**Query** Check this sequence for shrunken log2 fold change at or above -0.02: `RRIRLRPPRLPRPRPRPFKYPRP`
**Result** f

**Query** Given the entry `RRIRTRPPRLPRPRPRPLWAPRP` , answer whether its shrunken log2 fold change meets or surpasses -0.02.
**Result** t
